src = paper PMC10146558

Assay Target: CYP2C19 (Homo sapiens, UniProt P33261)
Construct: Cryopreserved pooled human liver microsomes were obtained from Xenotech; tissue Xenotech (Lenexa, KS, USA); host or cells: pooled human liver microsomes
Sequence (P33261 whole entry): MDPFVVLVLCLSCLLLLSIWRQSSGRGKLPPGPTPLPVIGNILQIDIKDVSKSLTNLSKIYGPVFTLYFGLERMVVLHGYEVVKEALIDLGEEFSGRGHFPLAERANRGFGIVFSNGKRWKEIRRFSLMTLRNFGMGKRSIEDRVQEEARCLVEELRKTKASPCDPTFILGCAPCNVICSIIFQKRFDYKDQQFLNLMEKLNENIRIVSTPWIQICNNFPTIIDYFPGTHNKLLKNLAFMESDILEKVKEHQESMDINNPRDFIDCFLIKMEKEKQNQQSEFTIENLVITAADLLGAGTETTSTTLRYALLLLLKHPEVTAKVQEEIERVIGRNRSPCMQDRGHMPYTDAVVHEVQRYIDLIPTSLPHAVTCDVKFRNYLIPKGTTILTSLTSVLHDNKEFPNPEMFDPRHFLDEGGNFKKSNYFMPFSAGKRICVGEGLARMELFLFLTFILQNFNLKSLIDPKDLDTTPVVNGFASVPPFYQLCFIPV
Assay: CYP2C19 activity ((S)-mephenytoin 4′-hydroxylation) in human liver microsomes
Type: biochemical
Condition Label: human liver microsomes, (S)-mephenytoin 4′-hydroxylation
Property: IC50 (µM)
Respond numerically; units are µM and should not be typed.

>  <Structure Smiles>
Cc1cc2cccnc2c2ncccc12.O.O=[N+]([O-])[O-].O=c1c([O-])c(-c2ccccc2)[nH]c2ccccc12.[Cu+2]

>  <Property>
IC50

>  <Measurement>
61.2

$$$$

Query block: # input compound: Cc1cc2cccnc2c2ncccc12.F[B-](F)(F)F.O.O=c1c([O-])c(-c2ccccc2)[nH]c2ccccc12.[Cu+2] ; wanted: its IC50
Result block: 77.1

====

Assay Target: CYP2C9 (Homo sapiens, UniProt P11712)
Construct: Cryopreserved pooled human liver microsomes were obtained from Xenotech; tissue Xenotech (Lenexa, KS, USA); host or cells: pooled human liver microsomes
Sequence (P11712 whole entry): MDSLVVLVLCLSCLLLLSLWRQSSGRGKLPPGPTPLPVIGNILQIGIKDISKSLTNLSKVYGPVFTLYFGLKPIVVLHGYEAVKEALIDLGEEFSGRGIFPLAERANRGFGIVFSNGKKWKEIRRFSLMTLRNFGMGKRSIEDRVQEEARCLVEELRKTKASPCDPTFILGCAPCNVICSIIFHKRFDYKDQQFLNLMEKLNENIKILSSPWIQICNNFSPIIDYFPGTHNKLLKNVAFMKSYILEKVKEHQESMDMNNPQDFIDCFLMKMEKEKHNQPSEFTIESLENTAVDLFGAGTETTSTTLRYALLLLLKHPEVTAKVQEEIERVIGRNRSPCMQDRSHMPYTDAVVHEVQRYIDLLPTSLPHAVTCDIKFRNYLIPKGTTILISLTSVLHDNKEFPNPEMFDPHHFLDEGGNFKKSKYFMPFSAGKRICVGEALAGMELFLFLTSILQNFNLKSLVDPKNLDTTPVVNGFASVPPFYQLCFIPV
Assay: CYP2C9 activity (diclofenac 4′-hydroxylation) in human liver microsomes
Type: biochemical
Condition Label: human liver microsomes, diclofenac 4′-hydroxylation
Measured pIC50 by item
Scale: negative log10 of molar concentration, which is what pIC50 denotes.

>  <Structure Smiles>
Cc1cc2cccnc2c2ncccc12.F[B-](F)(F)F.O.O=c1c([O-])c(-c2ccccc2)[nH]c2ccccc12.[Cu+2]

>  <pIC50>
4.43

$$$$

Could you now look at the following compound, please?
Query block: Entry Cc1cc2cccnc2c2ncccc12.O.O=[N+]([O-])[O-].O=c1c([O-])c(-c2ccccc2)[nH]c2ccccc12.[Cu+2] , system CYP2C9 (Homo sapiens, UniProt P11712): what pIC50 was measured?
Result block: 4.79

====

Assay Target: CYP3A4 (Homo sapiens, UniProt P08684)
Sequence (P08684 2-503): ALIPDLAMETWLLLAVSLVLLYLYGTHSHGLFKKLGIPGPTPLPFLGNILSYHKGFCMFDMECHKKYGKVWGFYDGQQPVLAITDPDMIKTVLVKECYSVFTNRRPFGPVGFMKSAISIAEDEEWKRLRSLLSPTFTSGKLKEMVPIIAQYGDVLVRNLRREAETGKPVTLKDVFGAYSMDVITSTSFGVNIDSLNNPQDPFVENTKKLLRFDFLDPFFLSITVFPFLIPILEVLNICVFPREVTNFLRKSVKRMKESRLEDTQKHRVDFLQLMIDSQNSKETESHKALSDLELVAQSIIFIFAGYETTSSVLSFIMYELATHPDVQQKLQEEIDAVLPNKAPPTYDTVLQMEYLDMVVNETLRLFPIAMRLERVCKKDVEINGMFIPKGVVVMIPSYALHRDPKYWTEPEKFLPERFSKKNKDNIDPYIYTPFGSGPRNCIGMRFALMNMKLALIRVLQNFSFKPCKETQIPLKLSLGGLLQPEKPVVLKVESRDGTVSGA
Assay: CYP3A4 activity (midazolam 1′-hydroxylation) in human liver microsomes
Condition Label: read-out: IC50 CYP3A4 (midazolam 1′-hydroxylation assay); human liver microsomes
Property: pIC50
Kindly note that pIC50 refers to -log10 of the concentration in mol/L and answer with the value alone.

>  <Structure Smiles>
Cc1cc2cccnc2c2ncccc12.O.O=[N+]([O-])[O-].O=c1c([O-])c(-c2ccccc2)[nH]c2ccccc12.[Cu+2]

>  <Property>
pIC50

>  <Measurement>
4.54

$$$$

Turning now to a further record.
Query block: I have this compound here, Cc1cc2cccnc2c2ncccc12.F[B-](F)(F)F.O.O=c1c([O-])c(-c2ccccc2)[nH]c2ccccc12.[Cu+2] , and I need its recorded pIC50.
Result block: 4.48

====

Assay Target: human bactosomes CYP3A4 (Homo sapiens)
Construct: purchased Cypex (Dundee, UK); host or cells: bacterial membranes ('bactosomes')
Sequence (P08684 whole entry): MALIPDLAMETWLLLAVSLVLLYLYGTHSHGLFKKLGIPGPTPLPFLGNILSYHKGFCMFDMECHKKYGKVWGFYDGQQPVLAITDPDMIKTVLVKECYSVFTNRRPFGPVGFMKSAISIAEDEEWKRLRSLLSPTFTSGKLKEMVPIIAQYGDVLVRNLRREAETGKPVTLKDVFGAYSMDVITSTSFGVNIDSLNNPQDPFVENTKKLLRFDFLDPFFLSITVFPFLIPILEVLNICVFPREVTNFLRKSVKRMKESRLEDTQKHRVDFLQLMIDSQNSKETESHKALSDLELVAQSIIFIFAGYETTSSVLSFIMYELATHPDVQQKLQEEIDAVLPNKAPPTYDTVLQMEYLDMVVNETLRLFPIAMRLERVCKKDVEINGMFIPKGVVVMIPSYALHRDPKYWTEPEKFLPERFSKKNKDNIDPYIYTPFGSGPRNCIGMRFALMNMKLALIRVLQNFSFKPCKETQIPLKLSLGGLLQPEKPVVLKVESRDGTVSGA
Assay: Isothermal titration calorimetry, bactosomes CYP3A4
Type: binding
Condition Label: ITC, 25 °C, pH 7.4, 1% DMSO; read-out: Kd, CYP3A4B
compounds and their reported Kd
The figure you give is taken to be in µM; do not add the unit.

>  <Structure Smiles>
Cc1cc2cccnc2c2ncccc12.O.O=[N+]([O-])[O-].O=c1c([O-])c(-c2ccccc2)[nH]c2ccccc12.[Cu+2]

>  <Kd, µM>
0.0521

$$$$

Query block: // returns reported Kd for input Cc1cc2cccnc2c2ncccc12.F[B-](F)(F)F.O.O=c1c([O-])c(-c2ccccc2)[nH]c2ccccc12.[Cu+2]
Result block: 0.0461

====

Assay Target: human bactosomes CYP2A6 (Homo sapiens)
Construct: purchased BD Biosciences (Franklin Lakes, NJ, USA); host or cells: bacterial membranes ('bactosomes')
Sequence (P11509 whole entry): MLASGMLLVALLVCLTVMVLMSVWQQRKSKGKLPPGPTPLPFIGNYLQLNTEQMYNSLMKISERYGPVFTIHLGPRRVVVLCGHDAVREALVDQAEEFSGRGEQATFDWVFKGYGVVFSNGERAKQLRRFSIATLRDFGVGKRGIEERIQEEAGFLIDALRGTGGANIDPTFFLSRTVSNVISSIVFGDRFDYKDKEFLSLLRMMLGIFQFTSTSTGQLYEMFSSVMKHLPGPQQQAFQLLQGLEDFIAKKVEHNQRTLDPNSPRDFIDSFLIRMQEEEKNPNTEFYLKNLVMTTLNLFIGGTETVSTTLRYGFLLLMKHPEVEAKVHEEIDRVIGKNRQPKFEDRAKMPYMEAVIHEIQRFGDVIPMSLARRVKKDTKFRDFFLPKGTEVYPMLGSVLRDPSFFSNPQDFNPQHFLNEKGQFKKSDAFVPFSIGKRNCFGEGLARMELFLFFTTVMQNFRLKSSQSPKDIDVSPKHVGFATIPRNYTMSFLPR
Assay: Isothermal titration calorimetry, bactosomes CYP2A6
Format: binding
Condition Label: ITC, 25 °C, pH 7.4, 1% DMSO; read-out: Kd, CYP2A6B
Property: Kd (nM)
Your answer is read as nM, so omit the unit and give the number.

>  <Structure Smiles>
Cc1cc2cccnc2c2ncccc12.O.O=[N+]([O-])[O-].O=c1c([O-])c(-c2ccccc2)[nH]c2ccccc12.[Cu+2]

>  <Assay Target>
human bactosomes CYP2A6 (Homo sapiens)

>  <Kd [nM]>
962

$$$$

Please examine the following record next.
Query block: What value of measured Kd is listed for Cc1cc2cccnc2c2ncccc12.F[B-](F)(F)F.O.O=c1c([O-])c(-c2ccccc2)[nH]c2ccccc12.[Cu+2] ?
Result block: 321

====

Ki overview
Tested on: CYP3A4/5
Assay: CYP3A4/5 activity (testosterone 6β-hydroxylation) in human liver microsomes
Condition Label: read-out: Ki CYP3A4/5 (testosterone 6β-hydroxylation assay); Dixon and Lineweaver–Burk plots, substrate ½ Km to 4 Km
Give your result in µM as a bare value.

Worked set:
>  <Molecule>
Cc1cc2cccnc2c2ncccc12.O.O=[N+]([O-])[O-].O=c1c([O-])c(-c2ccccc2)[nH]c2ccccc12.[Cu+2]

>  <Measurement>
3.6

$$$$
>  <Molecule>
O.O.O.O=[N+]([O-])[O-].O=[N+]([O-])[O-].[Cu+2] [copper(II) nitrate trihydrate, reference compound]

>  <Measurement>
1.56

$$$$

Next molecule, please.
Query block: Endpoint output: Ki of Cc1cc2cccnc2c2ncccc12.F[B-](F)(F)F.O.O=c1c([O-])c(-c2ccccc2)[nH]c2ccccc12.[Cu+2] . Value?
Result block: 3.94

====

Ki overview
Assay Target: CYP2C9 (Homo sapiens, UniProt P11712)
Construct: Cryopreserved pooled human liver microsomes were obtained from Xenotech; tissue Xenotech (Lenexa, KS, USA); host or cells: pooled human liver microsomes
Assay: CYP2C9 activity (diclofenac 4′-hydroxylation) in human liver microsomes
Assay type: biochemical
Condition Label: Dixon and Lineweaver–Burk plots, substrate ½ Km to 4 Km
Respond numerically; units are nM and should not be typed.

>  <Molecule>
Cc1cc2cccnc2c2ncccc12.O.O=[N+]([O-])[O-].O=c1c([O-])c(-c2ccccc2)[nH]c2ccccc12.[Cu+2] [complex 1]

>  <Ki (nM)>
2560

$$$$

Query block: Form field - read-out: Ki; system: CYP2C9 (Homo sapiens, UniProt P11712); submitted item: Cc1cc2cccnc2c2ncccc12.F[B-](F)(F)F.O.O=c1c([O-])c(-c2ccccc2)[nH]c2ccccc12.[Cu+2] [complex 2]
Result block: 920

====

Here, each record is paired with measured Ki data.
Assay Target: CYP2C19 (Homo sapiens)
Construct: Cryopreserved pooled human liver microsomes were obtained from Xenotech; tissue Xenotech (Lenexa, KS, USA); host or cells: pooled human liver microsomes
Assay: CYP2C19 activity ((S)-mephenytoin 4′-hydroxylation) in human liver microsomes
Type: biochemical
Condition Label: Dixon and Lineweaver–Burk plots, substrate ½ Km to 4 Km
Kindly answer with a numeric value in µM, unit omitted.

>  <Compound>
Cc1cc2cccnc2c2ncccc12.F[B-](F)(F)F.O.O=c1c([O-])c(-c2ccccc2)[nH]c2ccccc12.[Cu+2] [complex 2]

>  <Ki (µM)>
9.14

$$$$

Read the next record carefully.
Query block: // lookup Ki for Cc1cc2cccnc2c2ncccc12.O.O=[N+]([O-])[O-].O=c1c([O-])c(-c2ccccc2)[nH]c2ccccc12.[Cu+2] [complex 1]
Result block: 4.15

====

System: human liver microsomal cytochrome P450s
Assay: Difference spectra (UV-visible spectral titration) with human liver microsomes
Condition Label: read-out: Ks (spectral binding constant); spectral differences at 386 nm, CYP 1 µM, pH 7.4, room temperature
Property: Kd (µM)
Could you give me the number in µM? Just the number is fine.

>  <Molecule>
Cc1cc2cccnc2c2ncccc12.F[B-](F)(F)F.O.O=c1c([O-])c(-c2ccccc2)[nH]c2ccccc12.[Cu+2]

>  <Assay Target>
human liver microsomal cytochrome P450s

>  <Endpoint Unit>
µM

>  <Kd>
8.56

$$$$

Now let's try a different one.
Query block: What is its Kd for human liver microsomal cytochrome P450s? Entry: O.O.O.O=[N+]([O-])[O-].O=[N+]([O-])[O-].[Cu+2] [copper(II) nitrate trihydrate, reference compound]
Result block: 9.81

====

Tested on: human liver microsomal cytochrome P450s
Condition Label: pH 7.4
Property: Kd (µM)
Response body: numeric value in µM, unit text excluded.

Query block: Requested read-out: Kd. Entry: Cc1cc2cccnc2c2ncccc12.O.O=[N+]([O-])[O-].O=c1c([O-])c(-c2ccccc2)[nH]c2ccccc12.[Cu+2]
Result block: 7.59
